assay: Binding affinity to Hsp90 after 4 hrs by GM-FITC based fluorescence polarization assay
Reported Endpoint: IC50 (nM)

Example results:
>>> print(df.to_string())
                               entry_smiles  reported_endpoint  value_observed
0  O=C1c2ccccc2C(=O)c2c(-c3ccc[n+](Cc4cnccn4)c3)noc21.[Br-]               IC50             510
1  O=C1c2ccccc2C(=O)c2c(-c3ccc[n+](Cc4ccccc4)c3)noc21.[Br-]               IC50             770
2      O=C1c2ccccc2C(=O)c2c(-c3ccncc3)noc21               IC50             390

1: Cl.O=C1c2ccccc2C(=O)c2c(-c3ccc(OCCN4CCOCC4)cc3)noc21
2: CC(=O)Oc1cccc2c1C(=O)c1c(-c3ccncc3)noc1C2=O
Q. Sorting by IC50 in descending order, would 1 or 2 appear first? Answer by quoting the chosen item's label.
A. 1
(1: 1200 nM, 2: 84 nM)

P: CC(=O)Oc1cccc2c1C(=O)c1c(-c3cc[n+](Cc4ccccc4)cc3)noc1C2=O.[Br-]
Q: O=C1c2ccccc2C(=O)c2c(-c3ccccc3)noc21
R: CC(=O)Oc1cccc2c1C(=O)c1c(-c3ccc(F)cc3)noc1C2=O
S: O=C1c2ccccc2C(=O)c2c(-c3ccc(F)cc3)noc21
Q. Sort the compounds on IC50; start with the lowest figure. To answer, arrange all of the labels according to the requested order.
A. P, R, Q, S
(P: 31 nM, R: 1940 nM, Q: 7850 nM, S: 200000 nM)
